System: HeLa
Experiment: Primary qHTS to identify gynecologic anti-cancer compounds using libraries of approved drugs and bioactive compounds (AID 1345084); also: nearly all actives have a fitted effect of over 55% in size
Conditions: Gynecologic cancer cell panel viability, ATPlite luminescence, 48 h; series mostly up to 57.5 µM
Inconclusive results are not listed. The source made the active and inactive calls. Calls follow the shape of the dose curve; as a rule, active = well fitted cell-killing curve with a large enough effect; inconclusive = small, poorly fitted or top-dose-only effect, or effect the other way; inactive = flat fitted curve, though single readings scatter.

{"columns": ["compound", "outcome"],
 "data": [
  ["CC1(C)CC[C@]2(C(=O)O)CC[C@]3(C)C(=CCC4[C@@]5(C)CC[C@H](O[C@@H]6O[C@H](C(=O)O)[C@@H](O[C@@H]7OC[C@@H](O)[C@H](O)[C@H]7O)[C@H](O)[C@H]6O)C(C)(C)C5CC[C@]43C)C2C1O (some centres undefined)", "inactive"],
  ["COc1ccc(CN2C(=O)C(=O)c3cc(S(=O)(=O)N4CCC[C@H]4COc4cccnc4)ccc32)cc1", "inactive"],
  ["C=C1C[C@]23C[C@H]1CC[C@H]2[C@]1(C)CCC[C@@](C)(C(=O)O)[C@H]1[C@@H]3C(=O)O", "inactive"],
  ["O=C(O)c1cc(I)ccc1NC(=O)[C@H](Cc1ccccc1)NCc1ccccc1", "inactive"],
  ["C=C[C@H]1C(O[C@@H]2O[C@H](CO)[C@@H](O)[C@H](O)[C@H]2O)OC=C2C(=O)N3CCc4c([nH]c5ccccc45)C3CC21 (some centres undefined)", "inactive"],
  ["COC(=O)/C=C/C12COC(C)(C)C1C(O)C(OC(C)=O)C1(C)C2CCC2(C)C(c3ccoc3)OC(=O)C3OC321 (centres undefined)", "inactive"],
  ["OCC1OC(Oc2cc(O)cc(/C=C/c3ccc(O)cc3)c2)C(O)C(O)C1O (centres undefined)", "inactive"],
  ["COCCOc1ccc(N2CCN(CCn3ncc4c3nc(N)n3nc(-c5ccco5)nc43)CC2)cc1", "inactive"],
  ["CC(C)(C)CCN1C[C@@H]2C(CNC(=O)c3cc(Cl)cc(Cl)c3)[C@@H]2C1 (some centres undefined)", "inactive"]
]}

---

Tested on: HaCat
Assay: Cytotoxic Profiling of Annotated Libraries Using Quantitative High-Throughput Screening (AID 1296008); also: nearly all actives have a fitted effect of over 60% in size
Conditions: Five cell lines viability, CellTiter-Glo ATP luminescence, 48-72 h
Results filed as inconclusive are left out. Active and inactive are the calls of the source. Calls follow the shape of the dose curve; as a rule, active = well fitted inhibition curve with a large enough effect; inconclusive = small, poorly fitted or top-dose-only effect; inactive = flat fitted curve, though single readings scatter.
Outcome codes: active, inactive

{"columns": ["molecule", "answer_label"],
 "data": [
  ["CN1CCC(Nc2nc(Nc3ccc(Oc4ccccc4)cc3)c3c(=O)[nH]cc(Br)c3n2)CC1", "active"],
  ["CN1CCN(C2CCC(n3cc(-c4ccc(Oc5ccccc5)cc4)c4c(N)ncnc43)CC2)CC1 (stereo not given)", "active"],
  ["COc1cc(OC)c(/C=C/S(=O)(=O)Cc2ccc(OC)c(NCC(=O)O)c2)c(OC)c1", "inactive"],
  ["CC(=O)O[C@@H]1[C@@H](O)[C@H](O[C@H]2CC[C@]34C[C@]35CC[C@]3(C)[C@@H]([C@@]6(C)CC[C@@H](C(C)(C)O)O6)[C@@H](O)C[C@@]3(C)[C@@H]5C[C@H](O[C@@H]3O[C@H](CO)[C@@H](O)[C@H](O)[C@H]3O)[C@H]4C2(C)C)OC[C@H]1O", "inactive"],
  ["N#Cc1cc(F)cc(-c2nc(-c3ccccn3)no2)c1", "inactive"],
  ["NC1CCC(Nc2cc(-c3cccc(NCc4cccc(F)c4)n3)c(Cl)cn2)CC1 (stereo not given)", "active"],
  ["O=C1NC(=O)C(c2cn(-c3ccccc3)nc2-c2ccc(F)cc2)N1 (stereo not given)", "active"],
  ["COc1cc(C(=O)NC2CCN(C)CC2)ccc1Nc1ncc2c(n1)N(C1CCCC1)CC(F)(F)C(=O)N2C", "active"],
  ["Cc1ccccc1NC(=O)Nc1ccc(CC(=O)N(C)[C@@H](CC(C)C)C(=O)NCC[C@H](NC(=O)[C@@H]2CCCN2S(=O)(=O)c2cc(Cl)cc(Cl)c2)C(=O)O)cc1", "inactive"],
  ["C/C=C/C1=CC2=C(CO1)C(=O)C(C)(O)C(OC(=O)c1c(C)cc(OC)cc1O)C2 (stereo not given)", "inactive"],
  ["C=C(C)C(=O)O[C@H]1CC2=CC(C/C(C)=C\\[C@H]3OC(=O)C(=C)[C@H]13)OC2=O (stereo not given in full)", "active"],
  ["COc1cc(C(=O)OC[C@H]2O[C@@H](Oc3ccccc3/C=C/C(=O)O)[C@H](O)[C@@H](O)[C@@H]2O)cc(OC)c1OC", "inactive"],
  ["CC1COC(Nc2ccc3ncnc(Nc4ccc(OCc5nccs5)c(Cl)c4)c3c2)=N1 (stereo not given)", "active"],
  ["CC(=O)SCC(=O)c1ccc(NS(=O)(=O)c2ccc(OCCCN(C)C)cc2)nc1", "active"],
  ["COc1cc(OC)cc(C(=O)Nc2ccc(Cl)c(-c3nc4ccc(N(C)C)cc4[nH]3)c2)c1", "inactive"]
]}
